Test system: 996289-038-R-J1-PDC complex spheroid viability;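 also: spheroids exposed to the agents for 7 days before readout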
method_description: Anticancer human tumor 996289-038-R-J1-PDC patient-derived colon adenocarcinoma cell line growth inhibition [CLK]
stated_conditions: second compound 1 µM; first compound 0.0316 µM; stronger effect = lower value
Measured viability, T/C values are reported for all entries that follow.
Respond with the bare value in %.

molecule | result_units | viability, T/C
CCCS(=O)(=O)Nc1ccc(F)c(C(=O)c2c[nH]c3ncc(-c4ccc(Cl)cc4)cc23)c1F + CN1CCN(c2cc(C(=O)Nc3cc4cc(-c5cnn(C)c5)ccc4cn3)ccn2)CC1 | % | 5.57

[in] Please supply the value of reported viability, T/C for the item CCc1c2c(nc3ccc(O)cc13)-c1cc3c(c(=O)n1C2)COC(=O)[C@]3(O)CC + CNC(=O)c1ccc(Nc2nc(OC3CCCC3)c3c(-c4ccc5nc(C)oc5c4)c[nH]c3n2)c(OC)c1
[out] 46.6

[in] Please supply the value of reported viability, T/C for the item COC1C=CCC(C)C(C)S(=O)(=O)NC(=O)c2ccc3c(c2)N(CC2CCC21)CC1(CCCc2cc(Cl)ccc21)CO3 (configuration not stated) + CN1CCN(c2cc(C(=O)Nc3cc4cc(-c5cnn(C)c5)ccc4cn3)ccn2)CC1
[out] 7.76

[in] Please supply the value of reported viability, T/C for the item COc1c(OCCCN2CCOCC2)ccc2c3n(c(=NC(=O)c4cnc(N)nc4)nc12)CCN3 + CNC(=O)c1ccc(Nc2nc(OC3CCCC3)c3c(-c4ccc5nc(C)oc5c4)c[nH]c3n2)c(OC)c1
[out] 33.8

[in] Please supply the value of reported viability, T/C for the item CC(Nc1ccc2c(c1)OCCn1cc(N3C(=O)OCC3C(F)F)nc1-2)C(N)=O (configuration not stated) + CN1CCN(c2cc(C(=O)Nc3cc4cc(-c5cnn(C)c5)ccc4cn3)ccn2)CC1
[out] 2.6

[in] Please supply the value of reported viability, T/C for the item C=CC(=O)N1CCN(c2nc(=O)n(-c3c(C)ccnc3C(C)C)c3nc(-c4c(O)cccc4F)c(F)cc23)C(C)C1 (configuration not stated) + CN1CCN(c2cc(C(=O)Nc3cc4cc(-c5cnn(C)c5)ccc4cn3)ccn2)CC1
[out] 8.05

[in] Please supply the value of reported viability, T/C for the item C=CC(=O)N1CCN(c2nc(=O)n(-c3c(C)ccnc3C(C)C)c3nc(-c4c(O)cccc4F)c(F)cc23)C(C)C1 (configuration not stated) + CNC(=O)c1ccc(Nc2nc(OC3CCCC3)c3c(-c4ccc5nc(C)oc5c4)c[nH]c3n2)c(OC)c1
[out] 68.7

These data points were gathered from PubChem BioAssay AID2060600.
